Assay: NCI Yeast Anticancer Drug Screen. Data for the cln2 rad14 strain (AID 165);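 further: 0% = growth equal to vehicle treated cultures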
Conditions: S. cerevisiae cln2 rad14 strain, at 50.0 µM, hits give high values
About 79,000 compounds went through this panel and 15% of them were active in at least one assay; those are over-represented in the sample as a whole.
Documented growth inhibition across a set of compounds
Field: numeric (%). Do not append units.

O=c1n(CC2CO2)c2ccccc2n1CC1CS1 (stereo not given) :: -12.8

Problem: Given C[C@@H]1C[C@@H](O)[C@]2(O)O[C@@H]3C[C@@]4(C=O)[C@@H](CC[C@@H]5[C@@H]4CC[C@]4(C)[C@@H](C6=CC(=O)OC6)CC[C@]54O)C[C@H]3O[C@@H]2O1 , state its recorded growth inhibition.
Solution: -4.55

Problem: Request: CCC(C)OP(=S)(S)OC(C)CC.[Zn+2] (stereo not given)
Solution: -5.55

Problem: Same lookup for S=P1(c2ccccc2)C=C(N2CCCC2)CC1 (stereo not given) , please.
Solution: 1.7
